ASSAY_SYSTEM: human PDE4A10 (Homo sapiens)
Construct: gift from Dr. Hengming Ke
Sequence (P27815 1-825 isoform P27815-6): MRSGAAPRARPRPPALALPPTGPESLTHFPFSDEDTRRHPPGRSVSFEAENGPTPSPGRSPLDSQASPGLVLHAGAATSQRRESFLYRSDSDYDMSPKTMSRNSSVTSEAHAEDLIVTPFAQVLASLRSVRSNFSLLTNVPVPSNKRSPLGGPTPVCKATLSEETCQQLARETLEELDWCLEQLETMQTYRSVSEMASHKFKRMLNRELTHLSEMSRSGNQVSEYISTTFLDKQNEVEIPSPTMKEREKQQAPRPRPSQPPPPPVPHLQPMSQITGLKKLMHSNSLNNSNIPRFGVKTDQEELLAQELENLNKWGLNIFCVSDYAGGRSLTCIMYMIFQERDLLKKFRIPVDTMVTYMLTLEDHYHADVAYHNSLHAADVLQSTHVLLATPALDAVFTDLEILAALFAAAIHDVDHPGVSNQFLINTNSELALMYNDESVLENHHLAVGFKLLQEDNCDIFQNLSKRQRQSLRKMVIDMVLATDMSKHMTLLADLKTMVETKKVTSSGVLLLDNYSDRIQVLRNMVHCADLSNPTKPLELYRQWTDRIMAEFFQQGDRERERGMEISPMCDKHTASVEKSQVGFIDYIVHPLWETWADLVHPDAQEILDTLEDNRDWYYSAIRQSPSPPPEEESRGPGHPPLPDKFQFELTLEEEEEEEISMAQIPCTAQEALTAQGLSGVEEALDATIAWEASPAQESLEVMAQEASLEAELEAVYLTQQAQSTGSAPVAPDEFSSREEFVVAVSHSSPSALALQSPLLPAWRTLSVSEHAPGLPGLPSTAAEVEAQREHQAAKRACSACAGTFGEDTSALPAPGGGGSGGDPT
EXPERIMENTAL_PROTOCOL: In vitro PDE assay (Ba(OH)2 precipitation), PDE4A
Type: biochemical
CONDITION_LABEL: 50 nM cAMP substrate; mean ± SD of three independent experiments
MEASUREMENT_NAME: IC50 (nM)
Supply the numeric figure in nM, leaving out any unit text.

Report IC50 for Cc1nnc2c3ccccc3nc(Nc3cccc(C(=O)O)c3)n12 [BC8-15A] please.
1590

* * *

ASSAY_SYSTEM: recombinant human PDE3B (Homo sapiens, UniProt Q13370)
Sequence (Q13370 whole entry): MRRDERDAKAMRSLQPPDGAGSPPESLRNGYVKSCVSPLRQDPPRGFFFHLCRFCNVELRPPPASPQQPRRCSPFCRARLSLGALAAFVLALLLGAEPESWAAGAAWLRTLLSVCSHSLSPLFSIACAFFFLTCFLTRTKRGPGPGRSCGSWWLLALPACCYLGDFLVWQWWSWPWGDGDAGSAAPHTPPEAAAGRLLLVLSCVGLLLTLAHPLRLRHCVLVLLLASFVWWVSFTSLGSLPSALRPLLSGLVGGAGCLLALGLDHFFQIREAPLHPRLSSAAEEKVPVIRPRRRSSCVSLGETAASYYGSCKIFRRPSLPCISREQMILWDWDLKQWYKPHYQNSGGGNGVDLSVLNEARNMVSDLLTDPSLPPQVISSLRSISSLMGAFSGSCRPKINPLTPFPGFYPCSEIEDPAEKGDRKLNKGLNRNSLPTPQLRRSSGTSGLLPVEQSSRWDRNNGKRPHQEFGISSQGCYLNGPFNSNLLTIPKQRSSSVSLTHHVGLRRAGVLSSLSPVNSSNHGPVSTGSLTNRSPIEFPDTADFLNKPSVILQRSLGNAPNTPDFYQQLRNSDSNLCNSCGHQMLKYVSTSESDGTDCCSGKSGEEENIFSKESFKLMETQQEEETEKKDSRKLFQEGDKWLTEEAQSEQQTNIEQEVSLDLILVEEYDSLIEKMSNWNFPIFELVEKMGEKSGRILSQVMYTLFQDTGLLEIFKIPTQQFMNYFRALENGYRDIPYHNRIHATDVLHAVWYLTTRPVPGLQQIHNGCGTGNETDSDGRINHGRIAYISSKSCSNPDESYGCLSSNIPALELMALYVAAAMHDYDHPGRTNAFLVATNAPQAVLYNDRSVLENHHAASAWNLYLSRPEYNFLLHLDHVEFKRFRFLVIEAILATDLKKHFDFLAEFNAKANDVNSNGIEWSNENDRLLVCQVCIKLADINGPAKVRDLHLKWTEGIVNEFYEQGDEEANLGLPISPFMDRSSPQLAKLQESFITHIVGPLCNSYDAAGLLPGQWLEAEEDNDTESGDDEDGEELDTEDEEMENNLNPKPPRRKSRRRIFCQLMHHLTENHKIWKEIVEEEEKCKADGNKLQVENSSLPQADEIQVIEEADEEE
EXPERIMENTAL_PROTOCOL: In vitro PDE assay (Ba(OH)2 precipitation), PDE3B
CONDITION_LABEL: 30 nM cGMP substrate; three independent experiments
MEASUREMENT_NAME: IC50

# example entries with known answers
Report IC50 for Cc1nnc2c3ccccc3nc(Nc3cccc(C(=O)O)c3)n12 [BC8-15A] please.
> 20 µM

Report IC50 for CCc1nnc2c3ccccc3nc(Nc3cccc(C(=O)O)c3)n12 please.
> 20 µM

Now for another entry.
Report IC50 for CCc1nnc2c3ccccc3nc(Nc3cccc(C)c3)n12 [BC8-15C] please.
> 20 µM
